target: T1, Plasminogen (UniProt P00747 20-810, limits assumed, directly biotinylated in the assays of Examples 7-9; coupled to Sepharose in Example 1); test: competition ELISA, soluble peptide against biotinylated plasminogen on immobilized …-BSA
T1 construct: The same entry is used for unlabelled, biotinylated and Sepharose-coupled plasminogen; also called Plg; biotinylated plasminogen
T1 sequence (P00747 20-810 limits assumed): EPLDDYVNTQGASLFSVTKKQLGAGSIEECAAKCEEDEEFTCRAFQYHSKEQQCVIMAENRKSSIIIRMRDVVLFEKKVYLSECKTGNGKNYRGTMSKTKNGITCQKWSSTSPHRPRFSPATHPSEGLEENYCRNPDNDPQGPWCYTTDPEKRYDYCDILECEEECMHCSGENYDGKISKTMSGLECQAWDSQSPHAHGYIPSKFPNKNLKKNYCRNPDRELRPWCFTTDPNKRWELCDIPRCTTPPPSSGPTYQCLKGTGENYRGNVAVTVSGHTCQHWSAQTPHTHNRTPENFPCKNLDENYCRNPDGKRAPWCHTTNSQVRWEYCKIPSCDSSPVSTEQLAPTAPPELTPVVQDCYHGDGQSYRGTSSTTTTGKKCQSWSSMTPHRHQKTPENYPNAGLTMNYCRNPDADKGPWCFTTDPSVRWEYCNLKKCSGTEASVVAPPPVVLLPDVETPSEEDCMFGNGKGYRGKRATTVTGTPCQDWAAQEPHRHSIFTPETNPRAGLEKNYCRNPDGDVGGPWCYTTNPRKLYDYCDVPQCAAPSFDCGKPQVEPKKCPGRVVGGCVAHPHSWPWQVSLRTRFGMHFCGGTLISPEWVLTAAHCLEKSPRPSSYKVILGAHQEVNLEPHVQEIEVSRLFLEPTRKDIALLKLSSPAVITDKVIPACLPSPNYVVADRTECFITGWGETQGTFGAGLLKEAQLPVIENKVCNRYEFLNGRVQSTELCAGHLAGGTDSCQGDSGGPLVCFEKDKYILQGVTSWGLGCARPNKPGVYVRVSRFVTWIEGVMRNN
measured_property: IC50 (µM)
Quick note: give the figure in µM, leave out the unit.

IN: Please report the recorded IC50 for CEQSRFFIDK (also called wild type peptide) [peptide CEQSRFFIDK (SEQ ID NO: 34), corresponding to the C terminus of human Plg-RKT] .
OUT: 1
